We begin with a simple list: items and their reported pest or weed control at 1200 g/ha.
# Tested on: broad leaf weeds (Lindernia pyxidaria and Monochoria vaginalis)
# protocol: Test Example 1: herbicidal effect test by treatment of rice paddy soil (immediately after seeding)
# Assay type: in vivo
# experimentalSetup: 336 h, Monochoria vaginalis, 120 g/10a active ingredient, dry weight vs untreated area, 14 days after treatment, read-out: Herbicidal rate (%) Monochoria vaginalis
The response must be a number in % with no trailing unit.

CCC(C)n1oc(=O)c(Cc2ccccc2N(S(=O)(=O)C(F)(F)F)S(=O)(=O)C(F)(F)F)c1C (stereo not drawn); 100
Cc1c(Cc2ccccc2NS(=O)(=O)C(F)(F)F)c(=O)on1CC(C)C; 100
Cc1c(Cc2ccccc2N(S(=O)(=O)C(F)(F)F)S(=O)(=O)C(F)(F)F)c(=O)on1C(C)(C)C; 90

For CCC(C)n1oc(=O)c(Cc2ccccc2NS(=O)(=O)C(F)(F)F)c1C (stereo not drawn) the compound record lists pest or weed control at 1200 g/ha as 100

For CCC(C)n1oc(=O)c(Cc2ccccc2N(C(=O)OC)S(=O)(=O)C(F)(F)F)c1C (stereo not drawn) the compound record lists pest or weed control at 1200 g/ha as 90

For COCC(C)n1oc(=O)c(Cc2ccccc2NS(=O)(=O)C(F)(F)F)c1C (stereo not drawn) the compound record lists pest or weed control at 1200 g/ha as 90

For `CC(=O)N(c1ccccc1Cc1c(C)n(CC(C)C)oc1=O)S(=O)(=O)C(F)(F)F` the compound record lists pest or weed control at 1200 g/ha as 100

For `Cc1c(Cc2ccccc2N(S(=O)(=O)C(F)(F)F)S(=O)(=O)C(F)(F)F)c(=O)on1CC(C)C` the compound record lists pest or weed control at 1200 g/ha as 100

For COCC(C)n1oc(=O)c(Cc2ccccc2N(S(=O)(=O)C(F)(F)F)S(=O)(=O)C(F)(F)F)c1C (stereo not drawn) the compound record lists pest or weed control at 1200 g/ha as 80

====

# System: Scirpus juncoides
# protocol: Test Example 2: herbicidal effect test by treatment during growing period in paddy rice cultivation (seven days after seeding)
# Type: in vivo
# experimentalSetup: 120 g/10a active ingredient, assessed 14 days after treatment, dry weight vs untreated area
endpoint: Herbicidal rate (%) Scirpus juncoides
Just the number plus its unit, please.

Cc1c(Cc2ccccc2NS(=O)(=O)C(F)(F)F)c(=O)on1Cc1ccc(C#N)cc1; 80%
COCC(C)n1oc(=O)c(Cc2ccccc2N(C(=O)C2CC2)S(=O)(=O)C(F)(F)F)c1C (stereo not shown); 90%
Cc1c(Cc2ccccc2NS(=O)(=O)C(F)(F)F)c(=O)on1Cc1ccc(SC(F)(F)F)cc1; 40%

Now for the molecule whose Herbicidal rate (%) Scirpus juncoides we want.
// assay Scirpus juncoides, entry Cc1c(Cc2ccccc2NS(=O)(=O)C(F)(F)F)c(=O)on1C(C)c1cccc(Cl)c1 (stereo not shown) , Herbicidal rate (%) Scirpus juncoides value = 80%

====

We begin with a simple list: items and their reported herbicidal rate, Chenopodium album.
# Test system: Chenopodium album
# protocol: Test Example 3: herbicidal effect test by treatment of dry field farming soil (one day after seeding)
# Format: in vivo
# experimentalSetup: 120 g/10a active ingredient, evaluated 14 days after treatment
The response must be a number in % with no trailing unit.

CCCC(CC)n1oc(=O)c(Cc2ccccc2NS(=O)(=O)C(F)(F)F)c1C (stereo not drawn) [Compound 1-110]; 80
C#CCn1oc(=O)c(Cc2ccccc2NS(=O)(=O)C(F)(F)F)c1C [Compound 1-138]; 0
Cc1c(Cc2ccccc2N(S(C)(=O)=O)S(=O)(=O)C(F)(F)F)c(=O)on1C(C)c1ccccc1 (stereo not drawn) [Compound 1-907]; 90
CCn1oc(=O)c(Cc2ccccc2NS(=O)(=O)C(F)(F)F)c1C [Compound 1-98]; 0
CCNC(=O)N(c1ccccc1Cc1c(C)n(C(C)c2ccccc2)oc1=O)S(=O)(=O)C(F)(F)F (stereo not drawn) [Compound 1-874]; 90
Cc1c(Cc2ccccc2N(C(=O)Cc2ccccc2)S(=O)(=O)C(F)(F)F)c(=O)on1C(C)(C)C [Compound 1-503]; 90

For CC(=O)N(c1ccccc1Cc1c(C)n(C(C)(C)C)oc1=O)S(=O)(=O)C(F)(F)F [Compound 1-293] the compound record lists herbicidal rate, Chenopodium album as 90

For CSCCn1oc(=O)c(Cc2ccccc2N(C(=O)CC(C)C)S(=O)(=O)C(F)(F)F)c1C [Compound 1-358] the compound record lists herbicidal rate, Chenopodium album as 90

For Cc1c(Cc2ccccc2N(S(=O)(=O)C(F)(F)F)S(=O)(=O)C(F)(F)F)c(=O)on1CC[S+](C)[O-] (stereo not drawn) [Compound 1-1005] the compound record lists herbicidal rate, Chenopodium album as 40

For Cc1c(Cc2ccccc2N(S(C)(=O)=O)S(=O)(=O)C(F)(F)F)c(=O)on1C(C)(C)C [Compound 1-889] the compound record lists herbicidal rate, Chenopodium album as 90

For CCOC(=O)N(c1ccccc1Cc1c(C)n(C(C)COC)oc1=O)S(=O)(=O)C(F)(F)F (stereo not drawn) [Compound 1-615] the compound record lists herbicidal rate, Chenopodium album as 90
